Experiment: chemical genetic growth profiling, strain panel (AID 1159580);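 also: tested at 20 µM; growth read once vehicle control cultures reached saturation at 30 °C; 1 = growth at the plate median or of vehicle wells; lower values mean less growth of the strain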
Settings: S. cerevisiae deletion strains, growth OD, locus YPL055C, strain LGE1
The campaign covered roughly 5,500 compounds. About 2,000 (36%) were called active. Not shown: some 18% with an inconclusive outcome. Rule as the data show it: active = normalized growth mostly below about 0.91 (no sharp cut-off); inconclusive = no clear call, values can overlap the other calls; inactive = mostly above about 0.92. This is one part of the list.
Outcomes: 1 for active, 0 for inactive

Compound	Discrete Label
CCC(C)C(=O)O[C@H]1[C@H](O)C2C(CN3CC(C)CCC3[C@@]2(C)O)C2C[C@]34O[C@]5(O)C(OC(=O)C(C)(O)C(C)O)CC[C@@]3(C)C5C(OC(C)=O)[C@@H](OC(C)=O)C4[C@@]21O (stereo partly specified)	0
O=c1onc2cnc3ccccc3n12	1
CC1=C(/C=C/C(C)=C/C=C/C(C)=C/C=C/C=C(C)/C=C/C=C(C)/C=C/C2=C(C)C(=O)C(O)CC2(C)C)C(C)(C)CC(O)C1=O (stereo unspecified)	0
CCN(CCO)CCCC(C)Nc1ccnc2cc(Cl)ccc12 (stereo unspecified)	0
COc1cc2c(cc1OC)CC(=O)OC2	0
CCOC(=O)CSC(=S)NCc1ccc(C)cc1	1
COc1cc2c(cc1OC)Cc1cc(OC)c(OC)cc1Cc1cc(OC)c(OC)cc1C2	0
CN1CCCN=C1COC(=O)C(O)(c1ccccc1)C1CCCCC1 (stereo unspecified)	0
CCCCNc1cc(C(=O)O)cc(S(N)(=O)=O)c1Oc1ccccc1	0
COc1ccc(OC)c(C(O)C(C)N)c1 (stereo unspecified)	0
O=C(O)c1cc2ccccc2[nH]1	0
C/C=C1\C(=O)CC2C3CCC4=CC(=O)CC[C@]4(C)C3CC[C@]12C (stereo partly specified)	0
CC(C(=O)O)c1cccc(C(=O)c2ccccc2)c1 (stereo unspecified)	0
CC(=O)OCC[N+](C)(C)C	0
Cc1ccc(-c2csc(-c3ccc(Cl)cc3)n2)c(C)c1	0
ClC1=C(Cl)C2(Cl)C3C4CC(C5OC45)C3C1(Cl)C2(Cl)Cl (stereo unspecified)	0
CCOC(=O)C(Cc1ccc(O)cc1)NC(C)=O (stereo unspecified)	0
CC(C)CC(NC(=O)C(Cc1ccccc1)NC(=O)CNC(=O)CNC(=O)C(N)Cc1ccc(O)cc1)C(=O)O (stereo unspecified)	0
Ic1ccc(I)s1	0
CNC(C)[C@H](O)c1ccccc1 (stereo partly specified)	0
NCC(O)C1CCCCCCC1 (stereo unspecified)	0
O=C(O)C1=CCCN(CCON=C(c2ccccc2)c2ccccc2)C1	0
CCOC(=O)C(C)(C)Oc1ccc(Cl)cc1	0
C[N+](C)(C)CCCCCCCCCC[N+](C)(C)C	0
O=C(O)c1cc2ccccc2c(Cc2c(O)c(C(=O)O)cc3ccccc23)c1O	0
CC(=O)[C@H]1CCC2C3CCC4=CC(=O)CC[C@]4(C)C3CC[C@@]21C (stereo partly specified)	0
CC(C)C[C@H](NC(=O)[C@@H](O)[C@H](N)Cc1ccccc1)C(=O)O	0
CCN(CC)CCCC(C)Nc1c2ccc(Cl)cc2nc2ccc(OC)cc12 (stereo unspecified)	1
COc1cc2c(cc1OC)C(=O)OC2	0
N[C@@H](C(=O)O)c1ccccc1	0
C=C1C2CC[C@H]3[C@]4(C)C[C@H](OC5OC(CO)C(OS(=O)(=O)O)C(OS(=O)(=O)O)C5OC(=O)CC(C)C)C[C@@H](C(=O)O)[C@H]4CC[C@]3(C2)[C@H]1O (stereo partly specified)	0
CC(C)(C)c1cc(-c2csc(-c3ccc(Cl)cc3)n2)cc(C(C)(C)C)c1O	0
CCN(CC)CC#CCOC(=O)C(O)(c1ccccc1)C1CCCCC1 (stereo unspecified)	0
Clc1ccc(N2CCN(Cc3c[nH]c4ncccc34)CC2)cc1	0
CC(CCc1ccc(O)cc1)NCCc1ccc(O)c(O)c1 (stereo unspecified)	1
CC(C[N+](C)(C)C)OC(N)=O (stereo unspecified)	0
COc1ccc(OC)c(S(=O)(=O)Nc2ccc(C#N)cc2)c1	0
CCCc1cc(=O)c2ccc(O)cc2o1	0
CC(=O)C1CCC2C3CC(=O)C4=CC(=O)CCC4(C)C3CCC12C (stereo unspecified)	0
O=C(O)C1C2CCC(O2)C1C(=O)O (stereo unspecified)	0
CCOC(=O)C1CCN(C(=S)Nc2ccccc2C(F)(F)F)CC1	0
CN(C)C(=S)SSC(=S)N(C)C	1
CC(=O)[C@H]1CC[C@H]2[C@@H]3CCC4=CC(=O)CC[C@]4(C)[C@H]3CC[C@]12C	0
CCC(=O)Nc1cc(F)ccc1C	0
C[C@@H](NCCc1ccc(O)cc1)[C@@H](O)c1ccc(O)cc1	0
Cc1ccc(OS(=O)(=O)c2ccc(C#N)cc2)c(Br)c1	0
